Tested on: U2OS
Assay: Multiplex assay against U2OS
Format: toxicity, cell-based
Conditions: human, 12 h, 10 µM, compound concentration 10 uM, replicate 2
Overview of reported Population Healthy Nuclei (%) across a group of compounds:
READOUT NAME: Population Healthy Nuclei (%)

[[record]]
compound = "Cc1cnc(-c2cc(N3CCN(C(=O)CCS(C)(=O)=O)CC3)ncc2Cl)c(C)c1"
readout_name = "Population Healthy Nuclei (%)"
measured_value = "73%"

[[record]]
compound = "COc1cccc2c1c(NS(=O)(=O)c1ccc(Cl)s1)nn2Cc1cccc(CNC(=O)C(C)(C)O)c1"
readout_name = "Population Healthy Nuclei (%)"
measured_value = "70%"

[[record]]
compound = "N#Cc1cc(F)cc(-c2nc(-c3ccc(F)cn3)no2)c1"
readout_name = "Population Healthy Nuclei (%)"
measured_value = "81%"

[[record]]
compound = "CCc1cc2cc(NS(=O)(=O)c3ccc(C#N)cc3)ccc2n(CC)c1=O"
readout_name = "Population Healthy Nuclei (%)"
measured_value = "80%"

[[record]]
compound = "CC(/C=C1\\SC(=S)N(CCCC(=O)Nc2ccc(C(=O)O)c(O)c2)C1=O)=C\\c1ccccc1"
readout_name = "Population Healthy Nuclei (%)"
measured_value = "72%"

[[record]]
compound = "CCCCC(=O)N(Cc1ccc(-c2ccccc2-c2nnn[nH]2)cc1)[C@H](C(=O)O)C(C)C"
readout_name = "Population Healthy Nuclei (%)"
measured_value = "71%"

[[record]]
compound = "CC[C@@H](C)Nc1nc(C)nc2c(-c3ccc(OC)nc3C)c(C)nn12"
readout_name = "Population Healthy Nuclei (%)"
measured_value = "70%"

[[record]]
compound = "Br.CS(=O)(=O)Nc1c(O)ccc2c1CCCC2C1=NCCN1 (stereo not given)"
readout_name = "Population Healthy Nuclei (%)"
measured_value = "75%"

[[record]]
compound = "N#Cc1c(Oc2cccc(OS(=O)(=O)CCCC(F)(F)F)c2)cccc1C(F)(F)F"
readout_name = "Population Healthy Nuclei (%)"
measured_value = "75%"

[[record]]
compound = "O=C(CCCc1ccccc1)Nc1nc2ccccc2c(=O)s1"
readout_name = "Population Healthy Nuclei (%)"
measured_value = "67%"


====

Test system: Fibroblast
Experiment: Multiplex assay against human fibroblast
Assay type: toxicity, cell-based
Details: 48 h, 1 µM, compound concentration 1 uM, replicate 1
Overview of reported Population Normal (%) across a group of compounds:
READOUT NAME: Population Normal (%)

[[record]]
compound = "Br.CS(=O)(=O)Nc1c(O)ccc2c1CCCC2C1=NCCN1 (stereo unspecified)"
unit_name = "%"
measured_value = 95

[[record]]
compound = "NCCc1cn(S(=O)(=O)c2c(Cl)nc3sccn23)c2ccccc12.O=C(O)C(=O)O"
unit_name = "%"
measured_value = 95

[[record]]
compound = "N#Cc1cc(F)cc(-c2nc(-c3ccc(F)cn3)no2)c1"
unit_name = "%"
measured_value = 98

[[record]]
compound = "Cl.N=C(N)NC(=O)Cc1c(Cl)cccc1Cl [GUANFACINE HYDROCHLORIDE]"
unit_name = "%"
measured_value = 98

[[record]]
compound = "Cl.NCCc1ccc(O)c(O)c1 [DOPAMINE HYDROCHLORIDE]"
unit_name = "%"
measured_value = 93

[[record]]
compound = "CC(C)c1noc(N2CCC(COc3ccc(-c4ccc(S(C)(=O)=O)cc4)nc3)CC2)n1 [GSK-1292263]"
unit_name = "%"
measured_value = 96


====

Test system: HEK-293T
Assay: Multiplex assay against HEK293T
Assay type: toxicity, cell-based
Details: human, 24 h, 10 µM, compound concentration 10 uM, replicate 2
Overview of reported Population Apoptotic (%) across a group of compounds:
READOUT NAME: Population Apoptotic (%)

[[record]]
compound = "Cc1sc2c(c1C)C(c1ccc(Cl)cc1)=N[C@@H](CC(=O)NCCCCCCCCNC(=O)COc1cccc3c1C(=O)N(C1CCC(=O)NC1=O)C3=O)c1nnc(C)n1-2 (some centres undefined)"
measured_value = 57

[[record]]
compound = "COc1ccccc1N1CCN(C[C@@H](C(=O)NC(C)(C)C)c2ccccc2)CC1.Cl.Cl"
measured_value = 66

[[record]]
compound = "O=C(CCCc1ccccc1)Nc1nc2ccccc2c(=O)s1"
measured_value = 52

[[record]]
compound = "CN[C@@H](C)C(=O)N[C@H](C(=O)N1CCC[C@H]1C(=O)Nc1snnc1-c1ccccc1)C1CCCCC1"
measured_value = 60


====

Tested on: HEK-293T
Assay: Multiplex assay against HEK293T
Format: toxicity, cell-based
Conditions: human, 12 h, 1 µM, compound concentration 1 uM, replicate 2
Label fulfilled when Population Fragmented Nuclei (%) is strictly below 6%; at or above that, label not fulfilled.

[[record]]
compound = "CC(=O)Nc1cccc2c1c(Sc1ccc(Cl)cc1)c(C)n2CC(=O)O [AZD1981]"
tested_system = "HEK-293T"
label_class = "fulfilled"

[[record]]
compound = "Cc1cccc(NC(=O)CN2CCC(c3ccccn3)CC2)c1.Cl.Cl"
tested_system = "HEK-293T"
label_class = "fulfilled"

[[record]]
compound = "CCc1cc2cc(NS(=O)(=O)c3ccc(C#N)cc3)ccc2n(CC)c1=O"
tested_system = "HEK-293T"
label_class = "not fulfilled"

[[record]]
compound = "NCCc1cn(S(=O)(=O)c2c(Cl)nc3sccn23)c2ccccc12.O=C(O)C(=O)O"
tested_system = "HEK-293T"
label_class = "not fulfilled"

[[record]]
compound = "Cc1onc(-c2ccccc2Cl)c1C(=O)N(C)c1ccc(Cl)cc1"
tested_system = "HEK-293T"
label_class = "fulfilled"

[[record]]
compound = "O=C1[C@H](Cc2ccc(O)cc2)N2C(=O)CCN(C(=O)NCc3ccccc3)[C@H]2CN1Cc1cccc2ccccc12"
tested_system = "HEK-293T"
label_class = "not fulfilled"

[[record]]
compound = "O=C(CCCc1ccccc1)Nc1nc2ccccc2c(=O)s1"
tested_system = "HEK-293T"
label_class = "not fulfilled"

[[record]]
compound = "Cl.N=C(N)NC(=O)Cc1c(Cl)cccc1Cl [GUANFACINE HYDROCHLORIDE]"
tested_system = "HEK-293T"
label_class = "fulfilled"

[[record]]
compound = "CN1CCN(c2cc(-c3ccccc3)nc(N)n2)CC1"
tested_system = "HEK-293T"
label_class = "fulfilled"

[[record]]
compound = "CN(C)C(=O)Cn1cc(-c2ccc(-c3cncc4ccccc34)cc2)cn1"
tested_system = "HEK-293T"
label_class = "fulfilled"

[[record]]
compound = "CC[C@@H](C)Nc1nc(C)nc2c(-c3ccc(OC)nc3C)c(C)nn12 [PEXACERFONT]"
tested_system = "HEK-293T"
label_class = "fulfilled"

[[record]]
compound = "COc1ccccc1N1CCN(C[C@@H](C(=O)NC(C)(C)C)c2ccccc2)CC1.Cl.Cl"
tested_system = "HEK-293T"
label_class = "fulfilled"

[[record]]
compound = "COc1cccc2c1c(NS(=O)(=O)c1ccc(Cl)s1)nn2Cc1cccc(CNC(=O)C(C)(C)O)c1"
tested_system = "HEK-293T"
label_class = "not fulfilled"

[[record]]
compound = "C[C@H](N)COC(=O)[C@@H](CCCCN)NC(=O)Cc1c(-c2ccc3ccccc3c2)[nH]c2c1ccc1ccccc12"
tested_system = "HEK-293T"
label_class = "not fulfilled"


====

System: HEK-293T
Test: Multiplex assay against HEK293T
Type: toxicity, cell-based
Settings: human, 24 h, 1 µM, compound concentration 1 uM, replicate 1
READOUT NAME: Population Healthy Nuclei (%)

[[record]]
compound = "Cc1onc(-c2ccccc2Cl)c1C(=O)N(C)c1ccc(Cl)cc1"
unit_name = "%"
measured_value = 81

[[record]]
compound = "COC[C@@H](c1ccc(C(F)(F)F)cc1)N1CCN(C2(C)CCN(C(=O)c3c(C)ncnc3C)CC2)C[C@@H]1C.O=C(O)/C=C\\C(=O)O [VICRIVIROC MALEATE]"
unit_name = "%"
measured_value = 79

[[record]]
compound = "CN[C@@H](C)C(=O)N[C@H](C(=O)N1CCC[C@H]1C(=O)Nc1snnc1-c1ccccc1)C1CCCCC1"
unit_name = "%"
measured_value = 80

[[record]]
compound = "Cl.N=C(N)NC(=O)Cc1c(Cl)cccc1Cl [GUANFACINE HYDROCHLORIDE]"
unit_name = "%"
measured_value = 80

[[record]]
compound = "CC[C@@H](C)Nc1nc(C)nc2c(-c3ccc(OC)nc3C)c(C)nn12"
unit_name = "%"
measured_value = 79


====

System: HEK-293T
Experiment: Multiplex assay against HEK293T
Type: toxicity, cell-based
Conditions: human, 24 h, 1 µM, compound concentration 1 uM, replicate 2
READOUT NAME: Population Fragmented Nuclei (%)

[[record]]
compound = "Cc1sc2c(c1C)C(c1ccc(Cl)cc1)=N[C@@H](CC(=O)NCCCCCCCCNC(=O)COc1cccc3c1C(=O)N(C1CCC(=O)NC1=O)C3=O)c1nnc(C)n1-2 (stereo not given in full)"
readout_name = "Population Fragmented Nuclei (%)"
measured_value = 6

[[record]]
compound = "N#Cc1c(Oc2cccc(OS(=O)(=O)CCCC(F)(F)F)c2)cccc1C(F)(F)F"
readout_name = "Population Fragmented Nuclei (%)"
measured_value = 8

[[record]]
compound = "Br.CS(=O)(=O)Nc1c(O)ccc2c1CCCC2C1=NCCN1 (stereo not given)"
readout_name = "Population Fragmented Nuclei (%)"
measured_value = 6

[[record]]
compound = "Cc1c(CC(=O)O)c2cccnc2n1Cc1ccc(S(C)(=O)=O)cc1C(F)(F)F"
readout_name = "Population Fragmented Nuclei (%)"
measured_value = 7

[[record]]
compound = "O=C(CCCc1ccccc1)Nc1nc2ccccc2c(=O)s1"
readout_name = "Population Fragmented Nuclei (%)"
measured_value = 9

